Known melting point of a selection of compounds

// solved cases for melting point follow
compound	melting point
Cc1cccc2c1B(O)OC2 [C65, 7-methylbenzo[c][1,2]oxaborol-1(3H)-ol]	107 to 111 °C
N#Cc1ccc(Oc2ccc(B(O)O)cc2)cc1	194 to 198 °C
COc1ccc(Oc2ccc3c(c2)B(O)OC3)cc1	126 to 129 °C
OB1OCc2ccc(F)cc21	110 to 117.5 °C
COc1ccc2c(c1)c(Sc1ccccc1)cn2-c1ccc2c(c1)B(O)OC2	135 to 141 °C
Nc1cc2c(cc1F)COB2O	142 to 145 °C
OB1OCc2ccc(N3CCN(c4ccccn4)CC3)cc21	135 to 138 °C
CN(C)c1ccc2c(c1)B(O)OC2	120 to 123 °C
CCCCC(=O)c1cccc(COc2ccc3c(c2)COB3O)c1	96 to 98 °C
OB1OCc2ccc(-n3cc(Sc4ccccc4)c4ccccc43)cc21	159 to 163 °C

# input for lookup
Data request, read-out melting point, for `COc1ccc(S(=O)(=O)c2ccc3c(c2)B(O)OC3)cc1`
180 to 192 °C

###

measure: melting point

Sample records with melting point:
compound	val
COc1ccc2c(c1)COB2O	102 to 104 °C
[O-][S+](c1ccc(Cl)cc1)c1ccc2c(c1)B(O)OC2 (centres unmarked)	154 to 161 °C
OB1OCc2ccc(Sc3ccc(Cl)cc3)cc21	157 to 161 °C
Cc1ccc2c(c1)COB2O	124 to 128 °C
OB1OCc2ccc(Sc3ccc(C(F)(F)F)cc3)cc21	111 to 113 °C
CCOC(=O)COc1ccc2c(c1)COB2O	134 to 137 °C
N#Cc1ccc(Oc2cccc3c2B(O)OC3)cc1	148 to 153 °C
O=S(=O)(c1ccc(Cl)cc1)c1ccc2c(c1)B(O)OC2	157 to 163 °C
O=C(COc1ccc2c(c1)COB2O)N1CCCCC1	158 to 163 °C
O=C(COc1ccc2c(c1)COB2O)N1CCN(c2ncccn2)CC1	190 to 195 °C

Recorded melting point of `N#Cc1cccc(COc2ccc3c(c2)COB3O)c1` , please.
147 to 150 °C

I would be grateful if you could share the reported melting point for `COc1ccc(Sc2ccc3c(c2)B(O)OC3)cc1` .
95 to 100 °C

For `OB1OCc2ccc(Oc3ccc(Cl)cc3)cc21` , what is its reported melting point?
119 to 130 °C

What value of melting point has been recorded for this entry: `N#Cc1cccc(Oc2ccc3c(c2)B(O)OC3)c1`
146 to 149 °C

I'd like to know its melting point. The compound in question is `N#CCCSc1cn(-c2ccc3c(c2)B(O)OC3)c2ccccc12`
135 to 141 °C

Quick one: melting point of `O=C(Nc1ccc2c(c1)B(O)OC2)c1ccccc1` ?
186 to 193 °C

Need melting point of `OB1OCc2cc3c(cc21)OCO3` , thanks.
185 to 189 °C

Need melting point, item `O=C(O)COc1ccc2c(c1)COB2O`
163 to 166 °C

Find the recorded melting point belonging to `COc1ccc2c(c1)c(SCCC#N)cn2-c1ccc2c(c1)B(O)OC2` and report it.
149 to 154 °C

I have this compound here, `OCc1cccc2c1B(O)OC2` , and I need its recorded melting point.
241 to 250 °C

Values compiled from patent US9682092B2.
